System: U251 CNS
Assay: NCI tumour cell line growth inhibition, 48 h
Reported TGI values for a set of compounds

Solved entries (count: 8):
// lookup TGI for C[C@]12Cc3cn[nH]c3C(=O)C1CC[C@@H]1C2CC[C@@]2(C)C1CC[C@]2(C)O (stereo not given in full)
> 100 µM

Now this one: Cc1ccccc1C1=C/C(=C(\SS/C(C(=O)c2ccc(OCC(=O)O)c(Cl)c2Cl)=C2\C=C(c3ccccc3C)SS2)C(=O)c2ccc(OCC(=O)O)c(Cl)c2Cl)SS1
35.9 µM

Also check Cc1ccc(C(N)=Nc2ccccc2)cc1
> 100 µM

Could you do the same for COc1ccc(/C=C2\N=C(SC)N(C)C2=O)cc1 , please?
> 100 µM

Do the same for COc1ccc(-c2nc3ccccc3c(=O)[nH]2)c(OC)c1 please
> 100 µM

Proceed to Cc1ccc2nc(-n3c(/C=C/c4ccccc4O)nc4ccccc4c3=O)sc2c1
> 100 µM

How about this compound: C=C1C[C@@H](O)[C@@H](Br)C(C)(C)[C@@]12C=CC(O)(CBr)CC2 (stereo not given in full)
> 100 µM

Also check N/C(=N/N=C/c1cc(Br)cc(Br)c1O)NO
> 100 µM

Further cases:
What value of measured TGI is listed for O=c1c2c3c(sc2nc(CN2CCNCC2)n1-c1ccccc1)CCCC3 ?
> 100 µM

Now consider O=c1cc(-c2ccccc2)[nH]c2ccc(N3CCCCC3)cc12 and answer again.
> 45.9 µM

* * *

Collected TGI values appear next to each entry.
Test system: OVCAR-8 ovarian
Assay: NCI tumour cell line growth inhibition, 48 h

# count of solved cases: 2
Suppose we examine the compound O=c1c2c3c(sc2nc(CN2CCNCC2)n1-c1ccccc1)CCCC3 ; what TGI value has been reported?
> 100 µM

Repeat for the following compound: CC1=C(C(=O)Nc2cc(F)c(F)cc2F)C(c2ccc3c(c2)OCO3)C(C(=O)Nc2cc(F)c(F)cc2F)=C(C)N1
> 100 µM

---
What does the data say about its TGI? Entry: C=C(Nc1ccc(OC)cc1OC)C(=O)Cc1cccc[n+]1[O-]
> 100 µM

Proceed to COc1ccc2nccc(NCCCN3CCN(CCCNc4ccnc5ccc(OC)cc45)CC3)c2c1
2.85 µM

Okay, and O=c1n(N=S(=O)(c2ccccc2)c2ccccc2)c(=O)n2n1C1C=CC2CC1 ?
> 100 µM

Thanks! And CCCCCCCCCCCc1noc2c1C(=O)C(O)CC2 (stereo unspecified) ?
35.8 µM

// query: CN(C)CCc1ccc(Cl)cc1Cl
> 100 µM

Now the compound Nc1ccc2c(c1)S(=O)(=O)c1cc(O)ccc1O2
> 100 µM

Okay, and Cc1ccc2nc(-n3c(/C=C/c4ccccc4O)nc4ccccc4c3=O)sc2c1 ?
> 100 µM

O=c1cc(-c2ccccc2)[nH]c2ccc(N3CCCCC3)cc12 , same question.
> 44.9 µM

Repeat with COc1ccc(/C=C2\N=C(SC)N(C)C2=O)cc1
> 100 µM

Could you do the same for COc1ccc2nc3c([N+](=O)[O-])ccc4c3c(c2c1)N(CCCN(C)C)C(=S)N4CCCN(C)C , please?
21.5 µM

Input C[C@]12Cc3cn[nH]c3C(=O)C1CC[C@@H]1C2CC[C@@]2(C)C1CC[C@]2(C)O (stereo partly specified)
> 100 µM

Another: Oc1c(-c2ccccc2)nc2ccccn12
> 100 µM

Now the same for O=C1C(=O)c2c(O)ccc(O)c2C(O)=C1Cl
> 100 µM

Another: NC1=NS(=O)(=O)Nc2nc(-c3ccccc3)c(-c3ccccc3)nc21
> 100 µM

Now the compound CN(C)C(=O)Nc1c([N+](=O)[O-])cc(C(F)(F)F)cc1[N+](=O)[O-]
> 100 µM

Now the compound Cc1ccc(S(=O)(=O)NC2C(=O)c3ccccc3C(=O)C2n2ccnc2)cc1 (stereo unspecified)
> 100 µM

Follow-up item: O=C(COc1cccc(/C=C2/Oc3ccccc3C2=O)c1)Nc1nccs1
50.1 µM

Also CCCCCc1cc2cc3c(c(O)c2c(=O)[nH]1)C1(CC3)C(O)=c2c(=O)c3c(=O)cc(OC)c(=O)c=3c(=O)c2=C1O (stereo unspecified) , if possible.
3.26 µM

Now consider COc1ccc(N2C(=O)C3c4[nH]c5ccc(C)cc5c4C4CCC(c5ccccc5)CC4C3C2=O)cc1 (stereo unspecified) and answer again.
> 83.9 µM

* * *

Here, each record is paired with measured TGI data.
Test system: LOX IMVI melanoma
Experiment: NCI tumour cell line growth inhibition, 48 h
Where a SMILES comes first, the peptide text is derived from it. [ ]: non-standard residue; d: D form. The star is where a group is joined. Phe(4-NO2) = N[CH](Cc1ccc([N+](=O)[O-])cc1)C(=O)O; Boc = CC(C)(C)OC(=O)*; OtBu = CC(C)(C)O*

Quick one: TGI of CN(CC(=O)O)S(=O)(=O)c1ccc(F)cc1 ?
> 100 µM

Please do the same for Cc1nnc(N)nc1/C=C\c1ccc(N(C)C)cc1 as well.
20.1 µM

Entry to check: CN1C(=O)N(C)C2C1NN=c1s/c(=C\c3ccccc3F)c(=O)n12 (stereo not given)
> 100 µM

And then N#Cc1c2nc3ccccc3nc2n2ccccc12 , what is it?
> 100 µM

Quick one: CCCCCC(/C=C/C1CCC(=O)C1)OCOCCOC (stereo not given)
> 71 µM

What do you have for CC(=O)N(C)c1ccc2ncccc2c1[N+](=O)[O-] ?
> 100 µM

Quick one: O=C1CC[C@@]2(O)[C@H]3Cc4ccc(-c5cccc(O)c5)c5c4[C@@]2(CCN3CC2CC2)[C@H]1O5
27.2 µM

// query: COc1cc(-c2cc(/C=C/C(=O)c3ccc(N)cc3)[nH]n2)cc(OC)c1OC
3.28 µM

New cases:
What value of TGI has been reported for the following molecule? Cc1cnc(Cl)nc1C(C#N)c1nc2ccccc2s1 (stereo not given)
50.7 µM

Continue with O=c1c2c3c(sc2nc(CN2CCNCC2)n1-c1ccccc1)CCCC3
> 100 µM

// next record CCCCCCCCCCCC(=O)c1c(O)cc(C)oc1=O
> 100 µM

Another molecule: O=C1/C(=C/c2ccc(O)c(O)c2)COc2ccc(-c3ccccc3)cc21
2.84 µM

Continue with Cc1nc2c([nH]c1C)c(O)cc1c3c(nc12)C(=O)CCC3
> 100 µM

Ok, now Nc1nc(=S)c2c(ncn2CC(O)CO)[nH]1 (stereo not given)
> 100 µM

One more molecule: c1ccc2c(c1)c(N1CCCCC1)cc1nc3c(cc(N4CCCCC4)c4ccccc43)nc12
> 100 µM

What do you have for O=C1c2ccccc2C2=Cc3ccccc3C(O)N12 (stereo not given) ?
> 100 µM

Next up: O=C(CSc1nccc(=O)[nH]1)c1ccccc1
> 100 µM

CCCc1cc2c(cc1O)CC[C@@H]1[C@@H]2CC[C@]2(C)[C@@H](O)CC[C@@H]12 , same question.
24 µM

How about CC1C2C=CC1C(c1c3ccc(=O)c(O)c-3oc3c(O)c(O)ccc13)C2C(=O)O (stereo not given) ?
49.1 µM

Request: CC1CCCP(=O)(c2ccccc2)CC1 (stereo not given)
> 100 µM

Field entry: COc1ccc2c(c1)CN1C(=N2)CSC1c1c(Cl)cccc1[N+](=O)[O-] (stereo not given)
34.9 µM

And for Nc1ccc2nc3n(c(=O)c2c1)CCCCC3 ?
> 100 µM

# repeat for COC1=CC(=C(C#N)C(=Nc2ccccc2)SC)C=C(OC)C1=O
> 100 µM

Further, for COc1ccc(NC(=S)N=Nc2c(O)[nH]c3ccccc23)cc1 ?
> 100 µM

Then C=C(CN(C)C)C1(c2ccccc2)CC2(CCCC2)C(=O)O1 (stereo not given) ?
> 100 µM

Another molecule to check: COc1ccc(C(=O)n2nc(/C=C/c3ccc(O)c(OC)c3)cc2/C=C/c2ccc(O)c(OC)c2)cc1
3.15 µM

Would you kindly repeat that for CC(C)c1cccc(C(C)C)c1NC(=S)N=Nc1cc(C(C)(C)C)c(O)c(C(C)(C)C)c1 ?
34.2 µM

Next molecule: C=CCCCC(C#N)(c1ccccc1)N1CCCC1 (stereo not given)
> 100 µM

Now the same for C/C(=N\NC(C)(C)C)c1sc(-c2nc(C)c(/C(C)=N/NC(C)(C)C)s2)nc1C
> 100 µM

// same read-out, input: CC(=O)NC(CCC(=O)OC(C)(C)C)C(=O)NC(CCC(=O)OC(C)(C)C)C(=O)NC(Cc1ccc([N+](=O)[O-])cc1)C(=O)NC(CCCCNC(=O)OC(C)(C)C)C(=O)NC(CCCCNC(=O)OC(C)(C)C)C(=O)NCC(=O)O (stereo not given) (Ac-E(OtBu)E(OtBu)[Phe(4-NO2)]K(Boc)K(Boc)G-OH; configuration not given here)
> 100 µM
